# Test system: Lolium multiflorum (LOLMU)
# Experiment Description: Herbicidal post-emergence action
# Format: in vivo
# Reported Conditions: 1280 g/ha, assessed after ca. 3 weeks
Experimental Endpoint: Post-emergence activity against LOLMU (%)
Answers are plain numbers, in %.

Example results:
C#CCOC(=O)CC1CCC(=O)N1Cc1cccc(F)c1F (racemic) : 80
CC[C@H](C)[C@H](NC(=O)CC1CCC(=O)N1Cc1cccc(F)c1F)C(=O)O (single isomer, unassigned) [Example I-005] : 90
O=C(CC1CCC(=O)N1Cc1cccc(F)c1F)OC1CCC1 (racemic) : 90
CCC(C)OC(=O)CC1CCC(=O)N1Cc1cccc(F)c1F (racemic) : 80
CC(C)CC(NC(=O)CC1CCC(=O)N1Cc1cccc(F)c1F)C(=O)O (mixture of isomers) : 80
CC(C)OC(=O)CC1CCC(=O)N1Cc1cccc(F)c1F (racemic) : 80
O=C(CC1CCC(=O)N1Cc1cccc(F)c1F)OCCS(=O)(=O)c1ccccc1 (racemic) : 90
Cn1nnnc1NC(=O)CC1CCC(=O)N1Cc1cccc(F)c1F (racemic) : 90
CCOC(=O)CC1CCC(=O)N1Cc1cccc(F)c1F (racemic) : 90
Cc1ccc(OCCOC(=O)CC2CCC(=O)N2Cc2cccc(F)c2F)cc1 (stereo not shown) : 90

Answer for every listed entry: what is its Post-emergence activity against LOLMU? The entries follow.
1. COCC(=O)CC(=O)CNC(=O)CC1CCC(=O)N1Cc1cccc(F)c1F (racemic)
2. O=C(O)CC1CCC(=O)N1Cc1cccc(Cl)c1F (racemic)
3. O=C(CC1CCC(=O)N1Cc1cccc(F)c1F)OCC[S+]([O-])c1ccc(Cl)cc1 (racemic)
4. O=C(CC1CCC(=O)N1Cc1cccc(F)c1F)OCCSc1ccccc1 (racemic)
5. COc1ccc(OCCOC(=O)CC2CCC(=O)N2Cc2cccc(F)c2F)cc1 (racemic)
6. CC[C@@H](C)[C@@H](NC(=O)CC1CCC(=O)N1Cc1cccc(F)c1F)C(=O)O (single isomer, unassigned)

Response given:
1. 80
2. 100
3. 80
4. 80
5. 90
6. 80

====

Can you tell me Pre-emergence activity against SETVI for the items I'm about to list?
# Tested on: Setaria viridis (SETVI)
# Experiment Description: Herbicidal pre-emergence action
# Format: in vivo
# Reported Conditions: 1280 g/ha, graded after ca. 3 weeks
A complete answer gives the number followed by the unit.

Example results:
O=C(CC1CCC(=O)N1Cc1cccc(F)c1F)OC1CCCC1 (racemic) : 90%
O=C(CC1CCC(=O)N1Cc1cccc(F)c1F)OCCOc1ccc(Cl)cc1 (racemic) : 80%
CC(C)OC(=O)CC1CCC(=O)N1Cc1cccc(F)c1F (racemic) : 80%
O=C(O)C1CCCN1C(=O)CC1CCC(=O)N1Cc1cccc(F)c1F (racemic) : 90%
NC(=O)CC1CCC(=O)N1Cc1cccc(F)c1F (racemic) : 80%

Answer for every listed entry: what is its Pre-emergence activity against SETVI? The entries follow.
1. O=C(CC1CCC(=O)N1Cc1cccc(F)c1F)OCCSc1ccccc1 (racemic)
2. CC[C@@H](C)[C@@H](NC(=O)CC1CCC(=O)N1Cc1cccc(F)c1F)C(=O)O (single isomer, unassigned)
3. O=C(CC1CCC(=O)N1Cc1cccc(F)c1F)OCCOc1ccc(F)cc1 (racemic)
4. O=C(CC1CCC(=O)N1Cc1cccc(F)c1F)OC1CCC1 (racemic)

Response given:
1: 80%; 2: 90%; 3: 90%; 4: 80%

====

# System: Cyperus esculentus (CYPES)
# Experiment Description: Herbicidal pre-emergence action
# Type: in vivo
# Reported Conditions: 1280 g/ha, graded after ca. 3 weeks
Can you tell me Pre-emergence activity against CYPES for the items I'm about to list?
Give bare numbers, in %.

Example results:
O=C(CC1CCC(=O)N1Cc1cccc(F)c1F)OC1CCC1 (racemic) : 90
O=C(CC1CCC(=O)N1Cc1cccc(F)c1F)NCc1ccccc1 (racemic) : 100
CCOC(=O)CC1CCC(=O)N1Cc1cccc(F)c1F (racemic) : 80
COCCOC(=O)CC1CCC(=O)N1Cc1cccc(F)c1F (racemic) : 80
O=C(CC1CCC(=O)N1Cc1cccc(F)c1F)OCCS(=O)(=O)c1ccccc1 (racemic) : 80
Cn1nnnc1NC(=O)CC1CCC(=O)N1Cc1cccc(F)c1F (racemic) : 100
O=C(O)CC1CCC(=O)N1Cc1cccc(Cl)c1F (racemic) : 80
Cc1nonc1NC(=O)CC1CCC(=O)N1Cc1cccc(F)c1F (stereo not drawn) : 100

Answer for every listed entry: what is its Pre-emergence activity against CYPES? The entries follow.
1. CC(C)(C)COC(=O)CC1CCC(=O)N1Cc1cccc(F)c1F (racemic)
2. COc1ccc(OCCOC(=O)CC2CCC(=O)N2Cc2cccc(F)c2F)cc1 (racemic)
3. O=C(CC1CCC(=O)N1Cc1cccc(F)c1F)OCCOc1ccc(Cl)cc1 (racemic)

Response given:
1: 80; 2: 80; 3: 80

====

# Test system: Lolium multiflorum (LOLMU)
# Experiment Description: Herbicidal post-emergence action
# Assay type: in vivo
# Reported Conditions: 1280 g/ha, assessed after ca. 3 weeks
Experimental Endpoint: Post-emergence activity against LOLMU
A complete answer gives the number followed by the unit.

Answer for every listed entry: what is its Post-emergence activity against LOLMU? The entries follow.
1. COC(=O)C(C(=O)CC1CCC(=O)N1Cc1cccc(F)c1F)C(=O)OC (racemic) [Example I-176]
2. COc1ccc(SCCOC(=O)CC2CCC(=O)N2Cc2cccc(F)c2F)cc1 (racemic) [Example I-040]

Response given:
80%
80%

====

Can you tell me Post-emergence activity against AMARE for the items I'm about to list?
# System: Amaranthus retroflexus (AMARE)
# Experiment Description: Herbicidal post-emergence action
# Type: in vivo
# Reported Conditions: 1280 g/ha, assessed after ca. 3 weeks
Give bare numbers, in %.

CC1(C)C(=O)C(C(=O)CC2CCC(=O)N2Cc2cccc(F)c2F)C(=O)C(C)(C)C1=O (racemic) : 80
CC1(C)CCC(=O)C(C(=O)CC2CCC(=O)N2Cc2cccc(F)c2F)C1=O (racemic) : 100
CC1CC(=O)C(C(=O)CC2CCC(=O)N2Cc2cccc(F)c2F)C(=O)C1 (racemic) : 90

Next up:
Challenge: Could you share which Post-emergence activity against AMARE value was measured for O=C(CC1CCC(=O)N1Cc1cccc(F)c1F)NC1CCCc2ccccc21 (mixture of isomers) ?
Response given: 100

====

Can you tell me Post-emergence activity against ECHCG for the items I'm about to list?
# System: Echinochloa crus-galli (ECHCG)
# Experiment Description: Herbicidal post-emergence action
# Type: in vivo
# Reported Conditions: 1280 g/ha, assessed after ca. 3 weeks
Give bare numbers, in %.

COc1ccc(SCCOC(=O)CC2CCC(=O)N2Cc2cccc(F)c2F)cc1 (racemic) : 80
O=C(CC1CCC(=O)N1Cc1cccc(F)c1F)NC(Cc1ccccc1)C(=O)O (mixture of isomers) : 90
O=C(CC1CCC(=O)N1Cc1cccc(F)c1F)NCCc1ccccc1 (racemic) : 80

Challenge: Could you share which Post-emergence activity against ECHCG value was measured for O=C(CC1CCC(=O)N1Cc1cccc(F)c1F)NS(=O)(=O)C1CC1 (racemic) ?
Response given: 80

====

# Tested on: Echinochloa crus-galli (ECHCG)
# Experiment Description: Herbicidal post-emergence action
# Format: in vivo
# Reported Conditions: 1280 g/ha, assessed after ca. 3 weeks
Can you tell me Post-emergence activity against ECHCG for the items I'm about to list?
A complete answer gives the number followed by the unit.

Example results:
CC1(C)CC(=O)C(C(=O)CC2CCC(=O)N2Cc2cccc(F)c2F)C(=O)C1 (racemic) [Example I-179] : 90%
CSCCOC(=O)CC1CCC(=O)N1Cc1cccc(F)c1F (racemic) [Example I-010] : 100%
O=C(CC1CCC(=O)N1Cc1cccc(F)c1F)OCC[S+]([O-])c1ccc(Cl)cc1 (racemic) [Example I-029] : 90%

Answer for every listed entry: what is its Post-emergence activity against ECHCG? The entries follow.
1. O=C(CC1CCC(=O)N1Cc1cccc(F)c1F)OCC1CC1 (racemic) [Example I-020]
2. CCCC(C)OC(=O)CC1CCC(=O)N1Cc1cccc(F)c1F (racemic) [Example I-028]
3. O=C(O)CC1CCC(=O)N1Cc1cccc(F)c1F (single isomer, unassigned) [Example I-014]
4. CCC(C)OC(=O)CC1CCC(=O)N1Cc1cccc(F)c1F (racemic) [Example I-030]
5. CC[C@H](C)[C@H](NC(=O)CC1CCC(=O)N1Cc1cccc(F)c1F)C(=O)O (single isomer, unassigned) [Example I-011]

Response given:
90%
80%
90%
80%
80%

====

# Test system: Setaria viridis (SETVI)
# Experiment Description: Herbicidal pre-emergence action
# Assay type: in vivo
# Reported Conditions: 1280 g/ha, graded after ca. 3 weeks
Experimental Endpoint: Pre-emergence activity against SETVI (%)
Answers are plain numbers, in %.

O=C(CC1CCC(=O)N1Cc1cccc(F)c1F)OCC[S+]([O-])c1ccc(Cl)cc1 (racemic) [Example I-029] : 80
O=C(O)CC1CCC(=O)N1Cc1cccc(F)c1F (stereo not drawn) [Example I-003] : 80
CS(=O)(=O)NC(=O)CC1CCC(=O)N1Cc1cccc(F)c1F (racemic) [Example I-012] : 90

Answer for every listed entry: what is its Pre-emergence activity against SETVI? The entries follow.
1. COC(=O)CC1CCC(=O)N1Cc1cccc(F)c1F (racemic) [Example I-008]
2. O=C(O)CC1CCC(=O)N1Cc1ccc(F)c(F)c1F (stereo not drawn) [Example I-192]
3. CC(C)(C)COC(=O)CC1CCC(=O)N1Cc1cccc(F)c1F (racemic) [Example I-018]
4. CCC(C)OC(=O)CC1CCC(=O)N1Cc1cccc(F)c1F (racemic) [Example I-030]
5. CC(C)C(C)OC(=O)CC1CCC(=O)N1Cc1cccc(F)c1F (racemic) [Example I-036]
6. Cn1nnnc1NC(=O)CC1CCC(=O)N1Cc1cccc(F)c1F (racemic) [Example I-004]

Response given:
1: 90; 2: 90; 3: 90; 4: 80; 5: 100; 6: 80
